Taken from patent EP0908457B1.

System: Cyperus iria
Test: Preemergence weed control under flooded paddy conditions, CYPIR (Rice Flatsedge)
Format: in vivo
Details: 0.0320 kg/ha; preemergence weeds, flooded paddy; herbicidal effect rating 0-9, three to four weeks after treatment
Note to self: use 1 only for CYPIR readings below 5; a reading exactly at 5 still gets -1.

>  <molecule>
CN(c1ccc(-c2nsc3ccc(-n4c(=O)cc(C(F)(F)F)n(C)c4=O)cc23)cc1)S(C)(=O)=O

>  <class>
1

$$$$
>  <molecule>
COc1ccc(C)cc1-c1nsc2cc(Cl)c(-n3c(=O)cc(C(F)(F)F)n(C)c3=O)cc12

>  <class>
1

$$$$
>  <molecule>
Cn1c(C(F)(F)F)cc(=O)n(-c2ccc3snc(C(=O)NS(=O)(=O)Cc4ccc(C(C)(C)C)cc4)c3c2)c1=O

>  <class>
1

$$$$
>  <molecule>
CN(C(=O)COc1ccccc1-c1nsc2ccc(-n3c(=O)cc(C(F)(F)F)n(C)c3=O)cc12)S(C)(=O)=O

>  <class>
1

$$$$
>  <molecule>
Cn1c(C(F)(F)F)cc(=O)n(-c2ccc3snc(C(=O)NOS(=O)(=O)O)c3c2)c1=O

>  <class>
1

$$$$
>  <molecule>
COC(OC)c1nsc2ccc(-n3c(=O)cc(C(F)(F)F)n(C)c3=O)cc12

>  <class>
-1

$$$$
>  <molecule>
COC(=O)C(C)Oc1cc2c(cc1-c1nsc3ccc(-n4c(=O)cc(C(F)(F)F)n(C)c4=O)cc13)CCC2 (stereo not drawn)

>  <class>
1

$$$$
>  <molecule>
COc1cccc(CC(=O)OCc2nsc3ccc(-n4c(=O)cc(C(F)(F)F)n(C)c4=O)cc23)c1

>  <class>
1

$$$$
>  <molecule>
COc1cc(C)c(I)cc1-c1nsc2ccc(-n3c(=O)cc(C(F)(F)F)n(C)c3=O)cc12

>  <class>
-1

$$$$
>  <molecule>
Cn1c(C(F)(F)F)cc(=O)n(-c2ccc3snc(C(SCCCO)SCCCO)c3c2)c1=O

>  <class>
1

$$$$
>  <molecule>
CCOC(=O)c1nsc2cc(F)c(-n3c(=O)cc(C(F)(F)F)n(C)c3=O)cc12

>  <class>
-1

$$$$
>  <molecule>
CN(Cc1ccc(Cl)cc1)S(=O)(=O)NC(=O)c1nsc2ccc(-n3c(=O)cc(C(F)(F)F)n(C)c3=O)cc12

>  <class>
1

$$$$
>  <molecule>
Cn1c(C(F)(F)F)cc(=O)n(-c2ccc3snc(/C=N/Nc4ccccc4)c3c2)c1=O

>  <class>
-1

$$$$

---

Test system: Cyperus serotinus, Rottb.
Test: Preemergence weed control under flooded paddy conditions, CYPSE (Flatsedge)
Type: in vivo
Conditions: 0.1250 kg/ha, preemergence weeds, herbicidal effect rating 0-9, three to four weeks after treatment
Examples of compounds with documented CYPSE follow.
reported endpoint: CYPSE

>  <compound>
CCC(C#N)c1nsc2ccc(-n3c(=O)cc(C(F)(F)F)n(C)c3=O)cc12 (centres unmarked)

>  <reported endpoint>
CYPSE

>  <endpoint value>
9.0

$$$$
>  <compound>
Cn1c(C(F)(F)F)cc(=O)n(-c2ccc3snc(C(SCCO)SCCO)c3c2)c1=O

>  <reported endpoint>
CYPSE

>  <endpoint value>
0.0

$$$$
>  <compound>
Cn1c(C(F)(F)F)cc(=O)n(-c2ccc3snc(C(=O)C(C)(C)C)c3c2)c1=O

>  <reported endpoint>
CYPSE

>  <endpoint value>
6.5

$$$$
>  <compound>
Cn1c(C(F)(F)F)cc(=O)n(-c2ccc3snc(C4(C#N)CC4)c3c2)c1=O

>  <reported endpoint>
CYPSE

>  <endpoint value>
9.0

$$$$
>  <compound>
CONC(=O)c1nsc2ccc(-n3c(=O)cc(C(F)(F)F)n(C)c3=O)cc12

>  <reported endpoint>
CYPSE

>  <endpoint value>
2.0

$$$$
>  <compound>
CN(/N=C/c1nsc2ccc(-n3c(=O)cc(C(F)(F)F)n(C)c3=O)cc12)c1ccccc1

>  <reported endpoint>
CYPSE

>  <endpoint value>
4.0

$$$$
>  <compound>
COc1ccc(I)cc1-c1nsc2ccc(-n3c(=O)cc(C(F)(F)F)n(C)c3=O)cc12

>  <reported endpoint>
CYPSE

>  <endpoint value>
4.5

$$$$
>  <compound>
COC(=O)COc1ccc(C)cc1-c1nsc2cc(Cl)c(-n3c(=O)cc(C(F)(F)F)n(C)c3=O)cc12

>  <reported endpoint>
CYPSE

>  <endpoint value>
0.0

$$$$
>  <compound>
COc1cccc(CC(=O)OCc2nsc3ccc(-n4c(=O)cc(C(F)(F)F)n(C)c4=O)cc23)c1

>  <reported endpoint>
CYPSE

>  <endpoint value>
4.0

$$$$
>  <compound>
COC(=O)COc1cc2c(cc1-c1nsc3ccc(-n4c(=O)cc(C(F)(F)F)n(C)c4=O)cc13)CCC2

>  <reported endpoint>
CYPSE

>  <endpoint value>
4.0

$$$$
>  <compound>
Cc1ccc(OCC(=O)N(C)S(C)(=O)=O)c(-c2nsc3ccc(-n4c(=O)cc(C(F)(F)F)n(C)c4=O)cc23)c1

>  <reported endpoint>
CYPSE

>  <endpoint value>
3.0

$$$$
